Biological target: CETP (Homo sapiens, UniProt P11597)
Construct: made in house; host or cells: CHO cells (serum-free conditioned medium)
Sequence (P11597 18-493): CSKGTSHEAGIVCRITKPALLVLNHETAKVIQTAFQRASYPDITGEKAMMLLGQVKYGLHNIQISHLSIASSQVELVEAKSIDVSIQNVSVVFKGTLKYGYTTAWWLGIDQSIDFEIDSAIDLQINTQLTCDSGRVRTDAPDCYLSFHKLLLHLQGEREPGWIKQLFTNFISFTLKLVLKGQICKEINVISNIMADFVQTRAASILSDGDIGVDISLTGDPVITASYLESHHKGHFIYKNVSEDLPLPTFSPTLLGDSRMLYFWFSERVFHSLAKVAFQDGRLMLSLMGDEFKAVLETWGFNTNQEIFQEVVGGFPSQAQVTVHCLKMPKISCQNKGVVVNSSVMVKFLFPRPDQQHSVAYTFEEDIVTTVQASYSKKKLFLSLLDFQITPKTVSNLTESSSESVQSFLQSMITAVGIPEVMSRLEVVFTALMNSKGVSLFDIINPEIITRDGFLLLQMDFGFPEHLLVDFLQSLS
Test: CETP activity in vitro: transfer of [3H]CE from HDL donor to LDL acceptor particles
Assay type: biochemical
Conditions: Table 8; read-out: IC50
pIC50: −log10 of the molar value.
measure-name: pIC50

Reference set (2 entries):
compound	target	value-measured
Fc1ccc(-c2c(COCc3ccccc3)c(C(F)(F)F)nc(C(F)F)c2C(F)c2ccc(C(F)(F)F)cc2)cc1 (stereo not shown) [Compound 248]	CETP (Homo sapiens, UniProt P11597)	4.11
C=CC(OC(=O)c1ccccc1)c1c(C(F)F)nc(C(F)(F)F)c(C(=O)c2ccc(OCC)cc2)c1-c1ccccc1 (stereo not shown) [Compound 289]	CETP (Homo sapiens, UniProt P11597)	4.26

1 = OCc1c(C(F)(F)F)nc(C(F)F)c(C(F)c2ccc(C(F)(F)F)cc2)c1-c1ccc(F)cc1 (stereo not shown) [Compound 253]
2 = CCOC(=O)c1c(C(F)(F)F)nc(C(F)F)c(C(F)c2ccc(C(C)C)cc2)c1-c1ccccc1 (stereo not shown) [Compound 271]
## Task Hey, which is lower on measured pIC50, 1 or 2 ? Pick one; state its label.
## Result 2
(2: 4.15, 1: 4.72)

* * *

molecular target: CETP (Homo sapiens); construct: made in house; host or cells: CHO cells (serum-free conditioned medium); assay: CETP activity in vitro: transfer of [3H]CE from HDL donor to LDL acceptor particles; assay type: biochemical; conditions: IC50(μm), 50% inhibition of [3H]CE transfer from HDL to LDL, 2 hours at 37° C.
Consider the following molecules and their measured pIC50 readings.
pIC50 is defined as minus the log10 of a concentration measured in mol/L.

## Task Data request, read-out pIC50, for "COC(=O)c1c(C(F)F)nc(C(F)(F)F)c(C(=NC(C)C)SC)c1CC(C)C"
## Result 4.26

## Task Data request, read-out pIC50, for "COC(=O)c1c(C(F)F)nc(C(F)(F)F)c(C(=O)SC)c1CC(C)C"
## Result 4.19

## Task Data request, read-out pIC50, for "COC(=O)c1c(C(F)F)nc(C(F)(F)F)c(C(=O)Sc2ccc(Cl)cc2)c1CC(C)C"
## Result 4.30

* * *

biological target: CETP (Homo sapiens); construct: made in house; host or cells: CHO cells (serum-free conditioned medium); experiment: CETP activity in vitro: transfer of [3H]CE from HDL donor to LDL acceptor particles; type: biochemical; conditions: Table 8; read-out: IC50
measure-name: IC50 (µM)

compound	measure-name	display-unit	value-measured
O=C(c1ccc(C(F)(F)F)cc1)c1c(C(F)(F)F)nc(C(F)F)c(CO)c1-c1ccc(F)cc1 [Compound 292]	IC50	µM	16.2
O=Cc1c(C(F)(F)F)nc(C(F)F)c(Cc2ccc3ccccc3c2)c1-c1ccccc1 [Compound 279]	IC50	µM	15
O=C(c1ccc2ccccc2c1)c1c(C(F)(F)F)nc(C(F)F)c(CO)c1-c1ccccc1 [Compound 259]	IC50	µM	60
CCOC(=O)c1c(C(F)(F)F)nc(C(F)F)c(C(O)c2ccc3ccccc3c2)c1-c1ccccc1 (centres unmarked) [Compound 278]	IC50	µM	80

A = CCOC(=O)c1c(C(F)(F)F)nc(C(F)F)c(C(F)c2ccc(Cl)cc2)c1-c1ccccc1 (centres unmarked) [Compound 267]
B = O=Cc1c(C(F)F)nc(C(F)(F)F)c(C(F)c2ccc(C(F)(F)F)cc2)c1-c1ccc(F)cc1 (centres unmarked) [Compound 251]
## Task A or B : whose IC50 is greater? Pick one; state its label.
## Result A
(A: 70 µM, B: 7 µM)

* * *

Consider the following compounds and their measured melting point readings.

Reference set (5 entries):
compound	melting point
COC(=O)c1c(C(F)F)nc(C(F)(F)F)c(C(=O)Sc2ccc(C)cc2C)c1CC(C)C [Compound 158]	96 to 99 °C
COC(=O)c1c(C(F)F)nc(C(F)(F)F)c(C(=O)Sc2cc(C(C)(C)C)cc(C(C)(C)C)c2)c1CC(C)C [Compound 151]	102.5 to 108.5 °C
COC(=O)c1c(C(F)F)nc(C(F)(F)F)c(C(=O)Oc2c(C)cc([N+](=O)[O-])cc2C)c1CC(C)C [Compound 176]	96 to 97 °C
COC(=O)c1c(C(F)F)nc(C(F)(F)F)c(C(=O)Sc2ccc(C(C)C)cc2Cc2ccc(F)cc2)c1CC(C)C [Compound 160]	86.5 to 91 °C
COC(=O)c1c(C(F)F)nc(C(F)(F)F)c(C(=O)Sc2ccc(C)cc2C)c1CC(C)C [Compound 152]	98.5 to 102.5 °C

## Task Data request, read-out melting point, for COC(=O)c1c(C(F)F)nc(C(F)(F)F)c(C(=O)Sc2ccc(C(C)(C)C)cc2C(C)(C)C)c1CC(C)C [Compound 155]
## Result 115.5 to 120.5 °C

## Task Data request, read-out melting point, for COC(=O)c1c(C(F)F)nc(C(F)(F)F)c(C(=O)Oc2cc(C)cc(C)c2)c1CC(C)C [Compound 174]
## Result 90.5 to 94 °C

* * *

Biological target: CETP (Homo sapiens)
Construct: made in house; host or cells: CHO cells (serum-free conditioned medium)
Sequence (P11597 18-493): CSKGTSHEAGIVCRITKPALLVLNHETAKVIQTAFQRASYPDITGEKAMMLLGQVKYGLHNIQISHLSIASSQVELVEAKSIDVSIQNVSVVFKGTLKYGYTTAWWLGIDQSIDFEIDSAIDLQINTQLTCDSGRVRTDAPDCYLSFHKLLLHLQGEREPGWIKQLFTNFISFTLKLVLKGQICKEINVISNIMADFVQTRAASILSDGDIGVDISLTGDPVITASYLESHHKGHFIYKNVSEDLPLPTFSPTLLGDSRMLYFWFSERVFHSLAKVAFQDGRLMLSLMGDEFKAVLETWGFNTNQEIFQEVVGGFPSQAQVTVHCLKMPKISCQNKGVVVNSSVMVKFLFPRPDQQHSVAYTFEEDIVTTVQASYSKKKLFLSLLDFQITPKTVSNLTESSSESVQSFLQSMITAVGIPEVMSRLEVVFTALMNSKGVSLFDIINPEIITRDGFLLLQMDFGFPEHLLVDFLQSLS
Assay: CETP activity in vitro: transfer of [3H]CE from HDL donor to LDL acceptor particles
Assay type: biochemical
Details: Table 6, compounds of formula T-6; read-out: IC50
Experimental: The ability of compounds to inhibit CETP were assessed using an in vitro assay that measured the rate of transfer of radiolabeled cholesteryl ester ([^3H]CE) from HDL donor particles to LDL acceptor particles. Details of the assay are provided by Glenn et al. (“Quantification of Cholesteryl Ester Transfer Protein (CETP): A) CETP Activity and B) Immunochemical Assay of CETP Protein,” Meth. Enzymol., Glenn and Melton (Meth. Enzymol., 263, 339-351 (1996), which is incorporated herein by reference). […]
pIC50: −log10 of the molar value.
measure-name: pIC50

Reference set (5 entries):
compound	pIC50
COC(=O)c1c(C(F)F)nc(C(F)(F)F)c(CSc2c(Cl)cccc2Cl)c1CC(C)C [Compound 201]	4.52
COC(=O)c1c(C(F)F)nc(C(F)(F)F)c(CSc2cccc3cccnc23)c1CC(C)C [Compound 202]	4.10
COC(=O)c1c(C(F)F)nc(C(F)(F)F)c(CSc2ccc(OC)cc2)c1CC(C)C [Compound 199]	4.70
COC(=O)c1c(C(F)F)nc(C(F)(F)F)c(CSc2ccccn2)c1CC(C)C [Compound 216]	4.40
COC(=O)c1c(C(F)F)nc(C(F)(F)F)c(CSc2c(F)c(F)c(F)c(F)c2F)c1CC(C)C [Compound 194]	4.52

I = COC(=O)c1c(C(F)F)nc(C(F)(F)F)c(CSc2nc3ccccc3s2)c1CC(C)C [Compound 212]
II = COC(=O)c1c(C(F)F)nc(C(F)(F)F)c(CSc2cccc(Br)c2)c1CC(C)C [Compound 184]
## Task Hey, which is lower on measured pIC50, I or II ? Pick one; state its label.
## Result II
